Values compiled from patent US6670493B2.

Would you mind telling me the reported Succinate Dehydrogenase Activity, Average value ± SD of each entry?
system: primary rat Leydig cells; test: Cell damage: activity of mitochondrial succinate dehydrogenase (WST-1 test) in primary rat Leydig cell cultures; format: cell-based; details: hCG + 100 nM DEX + glucocorticoid receptor antagonist 1 μm
Answers are plain numbers, in Absorptions Units.

Sample answers from the record:
[
  {
    "Molecule": "CC12CC(c3ccc(C=NO)cc3)C3=C4CCC(=O)C=C4CCC3C1CCC2(O)C#Cc1ccc(S(C)(=O)=O)cc1 (stereo not shown) [GRA3]",
    "Assay result": 0.313
  },
  {
    "Molecule": "COCC1(OC)CCC2C3CCC4=CC(=O)CCC4=C3C(c3ccc(C(=NO)C(F)(F)F)cc3)CC21C (stereo not shown) [GRA1]",
    "Assay result": 0.289
  },
  {
    "Molecule": "C[C@]12C[C@H](c3ccc4c(c3)OCO4)C3=C4CCC(=O)C=C4CC[C@H]3[C@@H]1CC[C@@]2(O)C#Cc1ccc(S(C)(=O)=O)cc1 [GRA2]",
    "Assay result": 0.363
  }
]

Read the next record carefully.
Q) In one line, give reported Succinate Dehydrogenase Activity, Average value ± SD of the entry CC#C[C@]1(O)CC[C@H]2[C@@H]3CCC4=CC(=O)CCC4=C3[C@@H](c3ccc(N(C)C)cc3)C[C@@]21C [RU38486] .
A) 0.311
